Tested on: Staphylococcus aureus
Assay: Antibacterial activity against Staphylococcus aureus ATCC 25923 assessed as growth inhibition by serial plate dilution method
Type: functional
REPORTED_METRIC: MIC (µg/mL)
Give the quantity in µg/mL, number only.

Would you mind telling me what MIC value was observed for COc1ccc(C2=NN(c3nc(-c4ccc([N+](=O)[O-])cc4)cs3)C(c3ccc(-c4ccc([N+](=O)[O-])cc4C)o3)C2)cc1OC (configuration not stated) ?
6.25

// returns reported MIC for input COc1ccc(-c2ccc(C3CC(c4ccc(OC)c(OC)c4)=NN3c3nc(-c4ccc([N+](=O)[O-])cc4)cs3)o2)c([N+](=O)[O-])c1 (configuration not stated)
12.5

Would you mind telling me what MIC value was observed for COc1ccc(C2=NN(c3nc(-c4ccc([N+](=O)[O-])cc4)cs3)C(c3ccc(SC)cc3)C2)cc1 (configuration not stated) ?
25

// MIC lookup, key: CSc1ccc(C2CC(c3ccc(Cl)cc3Cl)=NN2c2nc(-c3ccc([N+](=O)[O-])cc3)cs2)cc1 (configuration not stated)
6.25

# input compound: COc1ccc(C2=NN(c3nc(-c4ccc([N+](=O)[O-])cc4)cs3)C(c3ccc(-c4ccc(Cl)cc4Cl)o3)C2)cc1OC (configuration not stated) ; wanted: its MIC
6.25

Entry COc1ccc(C2=NN(c3nc(-c4ccc([N+](=O)[O-])cc4)cs3)C(c3ccc(-c4ccc(Cl)cc4)o3)C2)cc1OC (configuration not stated) : reported MIC = ?
6.25

Give the measured MIC of O=[N+]([O-])c1ccc(-c2csc(N3N=C(c4ccccc4)CC3c3ccc(-c4ccc(Cl)cc4)o3)n2)cc1 (configuration not stated) .
12.5

* * *

Tested on: Trichophyton mentagrophytes
Assay: Antifungal activity against Trichophyton mentagrophytes assessed as growth inhibition by serial plate dilution method
Type: functional
REPORTED_METRIC: MIC (µg/mL)
Enter your answer as a number in µg/mL; do not include the unit.

I'd like to know its MIC. The molecule in question is O=[N+]([O-])c1ccc(-c2csc(N3N=C(c4ccccc4)CC3c3ccc(-c4ccc(Cl)cc4)o3)n2)cc1 (configuration not stated)
12.5

Requested field: MIC. Item: COc1ccc(C2=NN(c3nc(-c4ccc([N+](=O)[O-])cc4)cs3)C(c3ccc(-c4ccc(Cl)cc4)o3)C2)cc1OC (configuration not stated)
6.25

For COc1ccc(C2=NN(c3nc(-c4ccc([N+](=O)[O-])cc4)cs3)C(c3ccc(-c4ccc([N+](=O)[O-])cc4)o3)C2)cc1OC (configuration not stated) , what is its reported MIC?
6.25

Can you share its MIC? I mean this molecule: COc1ccc(C2=NN(c3nc(-c4ccc([N+](=O)[O-])cc4)cs3)C(c3ccc(SC)cc3)C2)cc1OC (configuration not stated)
25

Data request, read-out MIC, for COc1ccc(C2=NN(c3nc(-c4ccc([N+](=O)[O-])cc4)cs3)C(c3ccc(-c4ccc(Cl)cc4[N+](=O)[O-])o3)C2)cc1OC (configuration not stated)
12.5

Given COc1ccc(C2=NN(c3nc(-c4ccc([N+](=O)[O-])cc4)cs3)C(c3ccc(-c4cc(Cl)c(Cl)cc4Cl)o3)C2)cc1OC (configuration not stated) , state its recorded MIC.
6.25

Requested read-out: MIC. Entry: CCC(C)n1ncn(-c2ccc(N3CCN(c4ccc(OCC5COC(Cn6cncn6)(c6ccc(Cl)cc6Cl)O5)cc4)CC3)cc2)c1=O (configuration not stated)
6.25

Look up MIC: COc1ccc(C2=NN(c3nc(-c4ccc([N+](=O)[O-])cc4)cs3)C(c3ccc(-c4ccc(Br)cc4)o3)C2)cc1OC (configuration not stated)
12.5

Suppose we examine the molecule CSc1ccc(C2CC(c3ccc([N+](=O)[O-])cc3)=NN2c2nc(-c3ccc([N+](=O)[O-])cc3)cs2)cc1 (configuration not stated) ; what MIC value has been reported?
25

I'd like to know its MIC. The molecule in question is CSc1ccc(C2CC(c3ccc(Cl)cc3)=NN2c2nc(-c3ccc([N+](=O)[O-])cc3)cs2)cc1 (configuration not stated)
6.25

Looking for the measured MIC of COc1ccc(C2=NN(c3nc(-c4ccc([N+](=O)[O-])cc4)cs3)C(c3ccc(-c4ccc(Cl)cc4Cl)o3)C2)cc1OC (configuration not stated) , can you help?
6.25

Recorded MIC for CSc1ccc(C2CC(c3ccc(Cl)cc3Cl)=NN2c2nc(-c3ccc([N+](=O)[O-])cc3)cs2)cc1 (configuration not stated) , please?
6.25

Return reported MIC; argument: COc1ccc(C2=NN(c3nc(-c4ccc([N+](=O)[O-])cc4)cs3)C(c3ccc(-c4c(C)cccc4[N+](=O)[O-])o3)C2)cc1OC (configuration not stated)
12.5

May I ask what MIC has been recorded for COc1ccc(-c2ccc(C3CC(c4ccc(OC)c(OC)c4)=NN3c3nc(-c4ccc([N+](=O)[O-])cc4)cs3)o2)c([N+](=O)[O-])c1 (configuration not stated) ?
12.5

Requested field: MIC. Item: COc1ccc(C2=NN(c3nc(-c4ccc([N+](=O)[O-])cc4)cs3)C(c3ccc(-c4ccc([N+](=O)[O-])cc4C)o3)C2)cc1OC (configuration not stated)
6.25

Reported MIC, molecule COc1ccc(C2=NN(c3nc(-c4ccc([N+](=O)[O-])cc4)cs3)C(c3ccc(-c4ccc(F)c(Cl)c4)o3)C2)cc1OC (configuration not stated) : ____
6.25

Find the recorded MIC belonging to COc1ccc(C2=NN(c3nc(-c4ccc([N+](=O)[O-])cc4)cs3)C(c3ccc(SC)cc3)C2)cc1 (configuration not stated) and report it.
25

* * *

Consider the following molecules; for each one, report its MIC.
Test system: Talaromyces marneffei
Assay: Antifungal activity against Talaromyces marneffei assessed as growth inhibition by serial plate dilution method
Assay type: functional
Reply with the number and its unit after it.

I have this molecule here, COc1ccc(C2=NN(c3nc(-c4ccc([N+](=O)[O-])cc4)cs3)C(c3ccc(-c4ccc(Cl)cc4Cl)o3)C2)cc1OC (centres undefined) , and I need its recorded MIC.
6.25 µg/mL

Quick one: MIC for CSc1ccc(C2CC(c3ccc([N+](=O)[O-])cc3)=NN2c2nc(-c3ccc([N+](=O)[O-])cc3)cs2)cc1 (centres undefined) ?
25 µg/mL

Reported MIC, molecule COc1ccc(C2=NN(c3nc(-c4ccc([N+](=O)[O-])cc4)cs3)C(c3ccc(-c4cc(Cl)c(Cl)cc4Cl)o3)C2)cc1OC (centres undefined) : ____
6.25 µg/mL

Tell me the measured MIC of COc1ccc(-c2ccc(C3CC(c4ccc(OC)c(OC)c4)=NN3c3nc(-c4ccc([N+](=O)[O-])cc4)cs3)o2)c([N+](=O)[O-])c1 (centres undefined) , please.
12.5 µg/mL

Given the molecule COc1ccc(C2=NN(c3nc(-c4ccc([N+](=O)[O-])cc4)cs3)C(c3ccc(-c4ccc(F)c(Cl)c4)o3)C2)cc1OC (centres undefined) , what is its reported MIC?
6.25 µg/mL

Recorded MIC for COc1ccc(C2=NN(c3nc(-c4ccc([N+](=O)[O-])cc4)cs3)C(c3ccc(-c4ccc(Cl)cc4)o3)C2)cc1OC (centres undefined) , please?
6.25 µg/mL

What does the record list as MIC for COc1ccc(C2=NN(c3nc(-c4ccc([N+](=O)[O-])cc4)cs3)C(c3ccc(-c4c(C)cccc4[N+](=O)[O-])o3)C2)cc1OC (centres undefined) ?
12.5 µg/mL

Request the reported MIC associated with O=[N+]([O-])c1ccc(-c2csc(N3N=C(c4ccccc4)CC3c3ccc(-c4ccc(Cl)cc4)o3)n2)cc1 (centres undefined)
12.5 µg/mL

Requested field: MIC. Item: COc1ccc(C2=NN(c3nc(-c4ccc([N+](=O)[O-])cc4)cs3)C(c3ccc(SC)cc3)C2)cc1 (centres undefined)
25 µg/mL

Record request: MIC value, item COc1ccc(C2=NN(c3nc(-c4ccc([N+](=O)[O-])cc4)cs3)C(c3ccc(-c4ccc([N+](=O)[O-])cc4C)o3)C2)cc1OC (centres undefined)
6.25 µg/mL

Return reported MIC; argument: CSc1ccc(C2CC(c3ccc(Cl)cc3Cl)=NN2c2nc(-c3ccc([N+](=O)[O-])cc3)cs2)cc1 (centres undefined)
6.25 µg/mL

Dear colleague, I am looking for the recorded MIC of the following molecule: COc1ccc(C2=NN(c3nc(-c4ccc([N+](=O)[O-])cc4)cs3)C(c3ccc(-c4ccc([N+](=O)[O-])cc4)o3)C2)cc1OC (centres undefined)
6.25 µg/mL

So what's the measured MIC for this one? CCC(C)n1ncn(-c2ccc(N3CCN(c4ccc(OCC5COC(Cn6cncn6)(c6ccc(Cl)cc6Cl)O5)cc4)CC3)cc2)c1=O (centres undefined) [ITRACONAZOLE]
6.25 µg/mL

Name the recorded MIC for COc1ccc(C2=NN(c3nc(-c4ccc([N+](=O)[O-])cc4)cs3)C(c3ccc(-c4ccc(Br)cc4)o3)C2)cc1OC (centres undefined) .
12.5 µg/mL
